System: NCI-H1915
ASSAY SUMMARY: relative viability (nuclei count vs DMSO), 5 days (fraction); higher = more cells survive
EXPERIMENTAL CONDITIONS: first compound 0.2 µM
// returns 0 (no) unless relative viability is strictly below 0.3, in which case 1 (yes)

Sample answers from the record:
COMPOUND	CLASS
CCNC(=O)c1noc(-c2cc(C(C)C)c(O)cc2O)c1-c1ccc(CN2CCOCC2)cc1 [Luminespib] + NC(=O)Nc1cc(-c2cccc(F)c2)sc1C(=O)N[C@H]1CCCNC1 [AZD7762] (partner 0.2 µM)	1 (yes)
CN1CCN(CCOc2cc(OC3CCOCC3)c3c(Nc4c(Cl)ccc5c4OCO5)ncnc3c2)CC1 [Saracatinib] + O=C(CCCCCCC(=O)Nc1ccccc1)NO [Vorinostat] (partner 1 µM)	0 (no)
Cc1csc(=NC2CCCCC2)n1/N=C/c1ccc(O)c(O)c1O [MIM1] + O=C(c1cc(Cc2n[nH]c(=O)c3ccccc23)ccc1F)N1CCN(C(=O)C2CC2)CC1 [Olaparib] (partner 8 µM)	1 (yes)
Cc1csc(=NC2CCCCC2)n1/N=C/c1ccc(O)c(O)c1O [MIM1] + CC(=O)c1c(C)c2cnc(Nc3ccc(N4CCNCC4)cn3)nc2n(C2CCCC2)c1=O [Palbociclib] (partner 0.5 µM)	0 (no)

// switching to the query compound
relative viability strictly < 0.3 for this compound? Cc1csc(=NC2CCCCC2)n1/N=C/c1ccc(O)c(O)c1O [MIM1] + CS(=O)(=O)N1CCN(Cc2cc3nc(-c4cccc5[nH]ncc45)nc(N4CCOCC4)c3s2)CC1 [Pictilisib] (partner 1 µM)
0 (no)
